Test system: S. aureus VISA/HIP5827
PROTOCOL SUMMARY: MIC, broth microdilution, vancomycin-intermediate S. aureus VISA HIP5827
Assay type: cell-based, Staphylococcus aureus
CONDITION NOTES: Staphylococcus aureus VISA/HIP5827; read-out: MIC
I'd be grateful if you could share measured MIC for these entries.
Numbers only, in µM.

Use these answered entries as a reference point.
CCCC#Cc1ccc(NC(=O)CNC(=O)C2NC(=O)C3NC(=O)C(NC(=O)C4NC(=O)C(CC(N)=O)NC(=O)C(NC(=O)C(CC(C)C)NC)C(O)c5ccc(c(Cl)c5)Oc5cc4cc(c5OC4OC(CO)C(O)C(O)C4OC4CC(C)(N)C(O)C(C)O4)Oc4ccc(cc4Cl)C3O)c3ccc(O)c(c3)-c3c(O)cc(O)cc32)cc1 (stereo not shown)
0.39
CCCCC#Cc1ccc(NC(=O)CNC(=O)[C@H]2NC(=O)[C@H]3NC(=O)[C@H](NC(=O)[C@@H]4NC(=O)[C@H](CC(N)=O)NC(=O)[C@H](NC(=O)[C@@H](CC(C)C)NC)[C@H](O)c5ccc(c(Cl)c5)Oc5cc4cc(c5O[C@@H]4O[C@H](CO)[C@@H](O)[C@H](O)[C@H]4O[C@H]4C[C@](C)(N)[C@H](O)[C@H](C)O4)Oc4ccc(cc4Cl)[C@H]3O)c3ccc(O)c(c3)-c3c(O)cc(O)cc32)cc1
0.10
C#Cc1ccc(NC(=O)CNC(=O)C2NC(=O)C3NC(=O)C(NC(=O)C4NC(=O)C(CC(N)=O)NC(=O)C(NC(=O)C(CC(C)C)NC)C(O)c5ccc(c(Cl)c5)Oc5cc4cc(c5OC4OC(CO)C(O)C(O)C4OC4CC(C)(N)C(O)C(C)O4)Oc4ccc(cc4Cl)C3O)c3ccc(O)c(c3)-c3c(O)cc(O)cc32)cc1 (stereo not shown)
0.78

// for each molecule in input: emit MIC
1. CNC(CC(C)C)C(=O)NC1C(=O)NC(CC(N)=O)C(=O)NC2C(=O)NC3C(=O)NC(C(=O)NC(C(=O)NCCCNC(=O)c4cc5ccccc5o4)c4cc(O)cc(O)c4-c4cc3ccc4O)C(O)c3ccc(c(Cl)c3)Oc3cc2cc(c3OC2OC(CO)C(O)C(O)C2OC2CC(C)(N)C(O)C(C)O2)Oc2ccc(cc2Cl)C1O (stereo not shown)
2. CN[C@H](CC(C)C)C(=O)N[C@H]1C(=O)N[C@@H](CC(N)=O)C(=O)N[C@H]2C(=O)N[C@H]3C(=O)N[C@H](C(=O)N[C@H](C(=O)NCC(=O)Nc4ccccc4)c4cc(O)cc(O)c4-c4cc3ccc4O)[C@H](O)c3ccc(c(Cl)c3)Oc3cc2cc(c3O[C@@H]2O[C@H](CO)[C@@H](O)[C@H](O)[C@H]2O[C@H]2C[C@](C)(N)[C@H](O)[C@H](C)O2)Oc2ccc(cc2Cl)[C@H]1O
3. CN[C@H](CC(C)C)C(=O)N[C@H]1C(=O)N[C@@H](CC(N)=O)C(=O)N[C@H]2C(=O)N[C@H]3C(=O)N[C@H](C(=O)N[C@H](C(=O)NCCNC(=O)/C=C/c4ccc(Cl)cc4)c4cc(O)cc(O)c4-c4cc3ccc4O)[C@H](O)c3ccc(c(Cl)c3)Oc3cc2cc(c3O[C@@H]2O[C@H](CO)[C@@H](O)[C@H](O)[C@H]2O[C@H]2C[C@](C)(N)[C@H](O)[C@H](C)O2)Oc2ccc(cc2Cl)[C@H]1O
4. C#Cc1ccc(C=Cc2ccc(NC(=O)CNC(=O)C3NC(=O)C4NC(=O)C(NC(=O)C5NC(=O)C(CC(N)=O)NC(=O)C(NC(=O)C(CC(C)C)NC)C(O)c6ccc(c(Cl)c6)Oc6cc5cc(c6OC5OC(CO)C(O)C(O)C5OC5CC(C)(N)C(O)C(C)O5)Oc5ccc(cc5Cl)C4O)c4ccc(O)c(c4)-c4c(O)cc(O)cc43)cc2)cc1 (stereo not shown)
5. CCCCCc1ccc(C(=O)NCCCNC(=O)C2NC(=O)C3NC(=O)C(NC(=O)C4NC(=O)C(CC(N)=O)NC(=O)C(NC(=O)C(CC(C)C)NC)C(O)c5ccc(c(Cl)c5)Oc5cc4cc(c5OC4OC(CO)C(O)C(O)C4OC4CC(C)(N)C(O)C(C)O4)Oc4ccc(cc4Cl)C3O)c3ccc(O)c(c3)-c3c(O)cc(O)cc32)cc1 (stereo not shown)
6. CNC(CC(C)C)C(=O)NC1C(=O)NC(CC(N)=O)C(=O)NC2C(=O)NC3C(=O)NC(C(=O)NC(C(=O)NCC(=O)Nc4ccc(C#CC5CCCC5)cc4)c4cc(O)cc(O)c4-c4cc3ccc4O)C(O)c3ccc(c(Cl)c3)Oc3cc2cc(c3OC2OC(CO)C(O)C(O)C2OC2CC(C)(N)C(O)C(C)O2)Oc2ccc(cc2Cl)C1O (stereo not shown)
7. CNC(CC(C)C)C(=O)NC1C(=O)NC(CC(N)=O)C(=O)NC2C(=O)NC3C(=O)NC(C(=O)NC(C(=O)NCC(=O)Nc4ccc(-c5ccc(Cl)cc5)cc4)c4cc(O)cc(O)c4-c4cc3ccc4O)C(O)c3ccc(c(Cl)c3)Oc3cc2cc(c3OC2OC(CO)C(O)C(O)C2OC2CC(C)(N)C(O)C(C)O2)Oc2ccc(cc2Cl)C1O (stereo not shown)

Output line:
[0.39, 0.78, 0.39, 0.78, 0.39, 0.78, 0.39]

###

Tested on: E. faecalis VRE 6
PROTOCOL SUMMARY: MIC, broth microdilution, vancomycin-resistant E. faecalis VRE 6 (VanA)
Type: cell-based, Enterococcus faecalis
CONDITION NOTES: Enterococcus faecalis VRE 6 (vancomycin-resistant); read-out: MIC
Answer each item with its documented MIC.
Numbers only, in µM.

CCCCC#Cc1ccc(/C=C/C(=O)NCCNC(=O)[C@H]2NC(=O)[C@H]3NC(=O)[C@H](NC(=O)[C@@H]4NC(=O)[C@H](CC(N)=O)NC(=O)[C@H](NC(=O)[C@@H](CC(C)C)NC)[C@H](O)c5ccc(c(Cl)c5)Oc5cc4cc(c5O[C@@H]4O[C@H](CO)[C@@H](O)[C@H](O)[C@H]4O[C@H]4C[C@](C)(N)[C@H](O)[C@H](C)O4)Oc4ccc(cc4Cl)[C@H]3O)c3ccc(O)c(c3)-c3c(O)cc(O)cc32)cc1
1.56
CCCCc1ccc(NC(=O)CNC(=O)[C@H]2NC(=O)[C@H]3NC(=O)[C@H](NC(=O)[C@@H]4NC(=O)[C@H](CC(N)=O)NC(=O)[C@H](NC(=O)[C@@H](CC(C)C)NC)[C@H](O)c5ccc(c(Cl)c5)Oc5cc4cc(c5O[C@@H]4O[C@H](CO)[C@@H](O)[C@H](O)[C@H]4O[C@H]4C[C@](C)(N)[C@H](O)[C@H](C)O4)Oc4ccc(cc4Cl)[C@H]3O)c3ccc(O)c(c3)-c3c(O)cc(O)cc32)cc1
3.13
CNC(CC(C)C)C(=O)NC1C(=O)NC(CC(N)=O)C(=O)NC2C(=O)NC3C(=O)NC(C(=O)NC(C(=O)NCCCNC(=O)c4ccc(C(F)(F)F)cc4)c4cc(O)cc(O)c4-c4cc3ccc4O)C(O)c3ccc(c(Cl)c3)Oc3cc2cc(c3OC2OC(CO)C(O)C(O)C2OC2CC(C)(N)C(O)C(C)O2)Oc2ccc(cc2Cl)C1O (stereo not shown)
3.13

Form field MIC, entry CNC(CC(C)C)C(=O)NC1C(=O)NC(CC(N)=O)C(=O)NC2C(=O)NC3C(=O)NC(C(=O)NC(C(=O)NCCCNC(=O)c4ccc(-c5ccc(-c6ccccc6)cc5)cc4)c4cc(O)cc(O)c4-c4cc3ccc4O)C(O)c3ccc(c(Cl)c3)Oc3cc2cc(c3OC2OC(CO)C(O)C(O)C2OC2CC(C)(N)C(O)C(C)O2)Oc2ccc(cc2Cl)C1O (stereo not shown) : 0.39

###

Tested on: S. aureus VRSA
PROTOCOL SUMMARY: MIC, broth microdilution, vancomycin-resistant S. aureus (VRSA)
Assay type: cell-based, Staphylococcus aureus
CONDITION NOTES: VRSA; ratio of MIC of vancomycin and MIC of analogue
QUANTITY: MIC-fold improvement vs. vancomycin
One number for each entry.

Please review the following examples before continuing.
CN[C@H](CC(C)C)C(=O)N[C@H]1C(=O)N[C@@H](CC(N)=O)C(=O)N[C@H]2C(=O)N[C@H]3C(=O)N[C@H](C(=O)N[C@H](C(=O)NCC(=O)Nc4cccc5ccccc45)c4cc(O)cc(O)c4-c4cc3ccc4O)[C@H](O)c3ccc(c(Cl)c3)Oc3cc2cc(c3O[C@@H]2O[C@H](CO)[C@@H](O)[C@H](O)[C@H]2O[C@H]2C[C@](C)(N)[C@H](O)[C@H](C)O2)Oc2ccc(cc2Cl)[C@H]1O [Vanc-41]
16
CNC(CC(C)C)C(=O)NC1C(=O)NC(CC(N)=O)C(=O)NC2C(=O)NC3C(=O)NC(C(=O)NC(C(=O)NCC(=O)Nc4ccc(C#CC5CC5)cc4)c4cc(O)cc(O)c4-c4cc3ccc4O)C(O)c3ccc(c(Cl)c3)Oc3cc2cc(c3OC2OC(CO)C(O)C(O)C2OC2CC(C)(N)C(O)C(C)O2)Oc2ccc(cc2Cl)C1O (stereo not drawn) [Vanc-70]
64

Read the next record carefully.
Summary line: CCCCC#Cc1ccc(/C=C/C(=O)NCCNC(=O)[C@H]2NC(=O)[C@H]3NC(=O)[C@H](NC(=O)[C@@H]4NC(=O)[C@H](CC(N)=O)NC(=O)[C@H](NC(=O)[C@@H](CC(C)C)NC)[C@H](O)c5ccc(c(Cl)c5)Oc5cc4cc(c5O[C@@H]4O[C@H](CO)[C@@H](O)[C@H](O)[C@H]4O[C@H]4C[C@](C)(N)[C@H](O)[C@H](C)O4)Oc4ccc(cc4Cl)[C@H]3O)c3ccc(O)c(c3)-c3c(O)cc(O)cc32)cc1 [Vanc-48] , S. aureus VRSA, reported MIC-fold improvement vs. vancomycin = 64
